- Read-out: Plasminogen activator inhibitor-1 (PAI1), SERPINE1 (gene 5054)
- PROTOCOL: BSK_BE3C_PAI1: BioMAP Diversity Plus: BE3C Assay for Plasminogen activator inhibitor-1 (PAI1) Biomarker Activity (AID 2283037)
- MEASUREMENT CONDITIONS: primary human bronchial epithelial cells; actives raise or lower the signal
Activity calls are given as the source filed them. The calls were made as follows: active = hit-call score of the fitted dose curve at least 0.9, where 1 is the maximum; inactive = score below 0.9.
Form entry, call: pick from active, inactive

CC1=C(/C=C/C(C)=C/C=C/C(C)=C/CO)C(C)(C)CCC1 = inactive

Give the logged outcome of this assay for the following molecule: CN[C@H]1CC[C@@H](c2ccc(Cl)c(Cl)c2)c2ccc(S(N)(=O)=O)cc21 active

Field: outcome | Entry: CCCCN(CCCC)CCCC inactive

Lab log entry: CCc1c(C(=O)NN2CCCCC2)nn(-c2ccc(Cl)cc2Cl)c1-c1ccc(Br)cc1 — outcome as called in the assay? active

I'd appreciate the recorded outcome for CCCCCCCCCCCCCCCC from this test. inactive

What call does the record list for CC(=O)OC/C=C(\C)CCC=C(C)C ? inactive
